Recorded inhibition of growth at 10 µM, one value per entry.
Test system: ACHN
Test: Growth inhibition of human ACHN cells at 10 uM after 48 hrs by sulforhodamine B assay
Format: functional
Conditions: read-out: GI
Kindly answer with a numeric value in %, unit omitted.

Here are 3 compounds together with their reported answers.
O=S(=O)(Nc1ccccn1)c1ccc2nc(-c3ccccc3)c(-c3ccccc3)nc2c1 : 34.3
CC(=S)NS(=O)(=O)c1ccc2nc(-c3ccccc3)c(-c3ccccc3)nc2c1 : 16.6
O=C(NS(=O)(=O)c1ccc2nc(-c3ccccc3)c(-c3ccccc3)nc2c1)c1ccccc1 : 11.8

Continue with the compound presented below.
Q: # query: inhibition of growth at 10 µM | item "O=S(=O)(Nc1ccc(Cl)cc1)c1ccc2nc(-c3ccccc3)c(-c3ccccc3)nc2c1" | system: ACHN
Ans: 23.9
